Experimental protocol: Whole-blood PK study (IV, IP and PO) in male CD-1 mice
Assay type: in vivo, mouse
Measurement context: male, CD-1, mouse, whole blood, iv, 1 mg/kg, mouse, IV 1 mg/kg, 0.50 h, animals 1-3; read-out: Individual blood concentration
Result type: concentration at 0.5 h (ng/mL)
Answer in ng/mL, number only, no unit symbol.

Param item = COc1cc(C(=O)/C=C/c2ccc(F)cc2)cc(OC)c1OC [C16, 4-fluoro-3’,4’,5’-trimethoxychalcone] ; retrieve measured concentration at 0.5 h. 8.4

###

Experimental protocol: Whole-blood PK study (IV, IP and PO) in male CD-1 mice
Type: in vivo, mouse
Measurement context: male, CD-1, mouse, whole blood, ip, 10 mg/kg, mouse blood, IP 10 mg/kg, individual animals 4-6
Result type: half-life
Phrase the answer as number then unit, nothing more needed.

Consider the molecule shown here: COc1cc(C(=O)/C=C/c2ccc(F)cc2)cc(OC)c1OC What is its recorded half-life? 38.2 min
